These data points were gathered from patent US7915012B2.

targetUnderTest: rTRPV2 (Rattus norvegicus, UniProt Q9WUD2, A713V/L151P/T158I)
Sequence (Q9WUD2 whole entry L151P/T158I/A713V): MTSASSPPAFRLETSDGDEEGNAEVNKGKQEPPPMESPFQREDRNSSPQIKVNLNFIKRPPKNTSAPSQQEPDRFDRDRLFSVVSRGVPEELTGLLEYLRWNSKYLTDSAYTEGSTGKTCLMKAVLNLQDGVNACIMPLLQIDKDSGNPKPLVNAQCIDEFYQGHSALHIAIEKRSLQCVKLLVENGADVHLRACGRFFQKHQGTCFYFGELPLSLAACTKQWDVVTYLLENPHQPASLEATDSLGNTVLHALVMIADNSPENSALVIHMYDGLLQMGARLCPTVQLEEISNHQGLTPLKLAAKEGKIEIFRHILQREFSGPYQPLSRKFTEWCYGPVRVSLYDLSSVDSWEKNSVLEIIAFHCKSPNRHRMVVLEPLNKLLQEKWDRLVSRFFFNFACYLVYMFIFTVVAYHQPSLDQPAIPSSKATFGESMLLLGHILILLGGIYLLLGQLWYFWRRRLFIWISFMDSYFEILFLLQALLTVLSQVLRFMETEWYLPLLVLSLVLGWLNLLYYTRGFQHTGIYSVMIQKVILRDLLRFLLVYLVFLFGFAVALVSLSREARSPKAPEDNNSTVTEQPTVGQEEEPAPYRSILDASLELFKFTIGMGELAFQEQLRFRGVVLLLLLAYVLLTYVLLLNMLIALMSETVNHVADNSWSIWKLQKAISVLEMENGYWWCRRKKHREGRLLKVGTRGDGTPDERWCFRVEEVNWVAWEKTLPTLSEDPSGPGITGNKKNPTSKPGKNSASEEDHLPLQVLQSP
testDetails: Fluo-3 calcium imaging in TRPV2 transfected HEK293T cell line
conditionParameters: n=12-62 per experimental value; read-out: Kd (Hill plot of calcium influx responses)
measuredAttribute: Kd (µM)

compoundString	measuredAttribute	measuredResult
CCCN(CCC)S(=O)(=O)c1ccc(C(=O)O)cc1	Kd	31.9
